Molecular target: mouse GPR34 (Mus musculus, UniProt Q9R1K6)
Construct: expressed in transfected cells; host or cells: HEK293 cells, transient transfection with pCAGGS vector (LipofectAMINE 2000)
Sequence (Q9R1K6 whole entry): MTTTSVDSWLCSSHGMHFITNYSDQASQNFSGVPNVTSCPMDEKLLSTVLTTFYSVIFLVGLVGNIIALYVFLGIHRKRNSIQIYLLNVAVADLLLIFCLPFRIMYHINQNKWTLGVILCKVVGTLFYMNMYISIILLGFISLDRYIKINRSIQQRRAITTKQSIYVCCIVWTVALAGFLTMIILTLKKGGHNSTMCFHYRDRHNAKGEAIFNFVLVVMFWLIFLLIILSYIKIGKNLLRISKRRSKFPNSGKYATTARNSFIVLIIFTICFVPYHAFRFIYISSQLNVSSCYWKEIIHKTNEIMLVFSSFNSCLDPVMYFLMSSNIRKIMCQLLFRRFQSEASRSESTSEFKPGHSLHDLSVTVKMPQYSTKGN
Assay: TGFα cleavage assay, agonistic activity against GPR34
Format: cell-based
Details: HEK293 cells transfected with AP labeled TGFα and mouse GPR34; graded against EC50 of Reference Compound 1
test_readout: GPR34/LPS1 agonistic activity

>  <molecule>
N[C@@H](COP(=O)(O)OCc1cccc(OC(=O)CCc2ccccc2OCc2cccc(Oc3ccccc3)c2)c1)C(=O)O

>  <system_name>
mouse GPR34 (Mus musculus, UniProt Q9R1K6)

>  <GPR34/LPS1 agonistic activity>
−~+

$$$$
>  <molecule>
CCCCCCCCCCCOc1ccccc1CCC(=O)Oc1cccc(OP(=O)(O)OC[C@H](N)C(=O)O)c1

>  <system_name>
mouse GPR34 (Mus musculus, UniProt Q9R1K6)

>  <GPR34/LPS1 agonistic activity>
−

$$$$
>  <molecule>
CCCCCCCCCCCOc1ccccc1CCC(=O)Oc1ccc(OP(=O)(O)OC[C@H](N)C(=O)O)cc1

>  <system_name>
mouse GPR34 (Mus musculus, UniProt Q9R1K6)

>  <GPR34/LPS1 agonistic activity>
−

$$$$
>  <molecule>
CCCCCCCC/C=C\CCCCCCCC(=O)OC[C@@H](O)COP(=O)(O)OC[C@H](N)C(=O)O [compound 1, reference compound]

>  <system_name>
mouse GPR34 (Mus musculus, UniProt Q9R1K6)

>  <GPR34/LPS1 agonistic activity>
+++

$$$$
>  <molecule>
CCCCCCCCCCCOc1ccccc1CCC(=O)OCc1ccccc1OP(=O)(O)OC[C@H](N)C(=O)O

>  <system_name>
mouse GPR34 (Mus musculus, UniProt Q9R1K6)

>  <GPR34/LPS1 agonistic activity>
+++

$$$$

I need GPR34/LPS1 agonistic activity for every entry listed below, if you could help.
1. CCCCCCCCCCCOc1ccccc1CCC(=O)OCC#CCOP(=O)(O)OC[C@H](N)C(=O)O
2. CCCCCCCCCCCOc1ccccc1CCC(=O)OCc1cccc(OP(=O)(O)OC[C@H](N)C(=O)O)c1
3. CCCCCCCCCCCOc1ccccc1CCC(=O)Oc1cccc(COP(=O)(O)OC[C@H](N)C(=O)O)c1
4. N[C@@H](COP(=O)(O)Oc1cccc(COC(=O)CCc2ccccc2OCc2cccc(Oc3ccccc3)c2)c1)C(=O)O

-- reply
["−", "−~++", "−", "−"]
